Listed next: entries and their corresponding GI50.
Test system: UACC-62
Experiment: NCI tumour cell line growth inhibition, 48 h
Calls of active or inactive are those of the source. No stated cut-off is given here; in the data, active = GI50 up to about 1.1 µM and inactive = higher.
MEASUREMENT_KIND: GI50

COMPOUND	ASSAY_SYSTEM	MEASUREMENT_KIND	RESULT
CCCCCC(O)(CCCCC)CCCCCCCCC1=C(O)C(=O)c2ccccc2C1=O	UACC-62	GI50	8.17 µM (inactive)
c1ccc(-c2ccnc3c2ccc2c(-c4ccccc4)ccnc23)cc1	UACC-62	GI50	0.418 µM (active)
CC(=O)OC1CC2(O)C(CCC3(C)C(c4ccc(=O)oc4)CCC32O)C2(C)CCC(O)C=C12 (stereo not given)	UACC-62	GI50	0.024 µM (active)
O=C1/C(=C/c2ccc(Cl)cc2)CCC/C1=C\c1ccc(O)c(CN2CCCCC2)c1	UACC-62	GI50	16.1 µM (inactive)
O=C(/N=N/c1cc(Cl)ccc1Cl)NNc1cc(Cl)ccc1Cl	UACC-62	GI50	11.2 µM (inactive)
N#CC(C#N)=Cn1c(=S)[nH]c2ccccc21	UACC-62	GI50	> 100 µM (inactive)
OCCN1CCN(c2nc(N3CCCC3)c3nc(Cl)c(NCc4ccccc4)nc3n2)CC1	UACC-62	GI50	4.65 µM (inactive)
c1cc(NNc2cccc(-c3nnn[nH]3)c2)cc(-c2nnn[nH]2)c1	UACC-62	GI50	> 100 µM (inactive)
CC(=O)N(CCN)CCN	UACC-62	GI50	> 100 µM (inactive)
Cc1cc(C)nc(NS(=O)(=O)c2ccc(NC(=O)c3cccc4c(NNc5ccc(S(=O)(=O)N=C(N)N)cc5)c5ccccc5nc34)cc2)n1	UACC-62	GI50	> 50 µM (inactive)

###

Listed next: entries and their corresponding GI50.
System: MCF7
Experiment: NCI tumour cell line growth inhibition, 48 h
Activity calls are given as the source filed them. Rule as the data show it: active = GI50 up to about 1.1 µM and inactive = higher.
MEASUREMENT_KIND: GI50

MOLECULE	RESULT
O=C(c1cc(Cl)cc(Cl)c1)N(Cc1cccnc1)C(=S)N(Cc1cccnc1)C(=O)c1cc(Cl)cc(Cl)c1	5.69 µM (inactive)
CCCCCOc1ccc(/C=N\c2ccc(-c3ccc(/N=C\c4ccc(OCCCCC)cc4)c(OC)c3)cc2OC)cc1	> 100 µM (inactive)
O=C(O)C(CO)NC(=O)C1C(C(=O)O)C(c2ccccc2[N+](=O)[O-])C=C(c2ccco2)N1c1ccncc1 (stereo not given)	1.99 µM (inactive)
C[n+]1c(/C=C/c2ccc(/C=N/NC(=O)c3ccc(C(=O)N/N=C/c4ccc(/C=C/c5cn6ccccc6[n+]5C)cc4)cc3)cc2)cn2ccccc21	> 100 µM (inactive)
C1=N\c2ccc(cc2)-c2ccc(cc2)/N=C\c2ccc(cc2)OCc2cccc(n2)COc2ccc/1cc2	> 100 µM (inactive)
CCOC(C)O[C@H]1C(=O)OCC1(C)C (stereo not given in full)	> 100 µM (inactive)
Cc1ccc2c(=O)cc(Cc3cccs3)[nH]c2n1	> 100 µM (inactive)
CCOP1(=O)CC(C)=C(Cl)C(OC)C1 (stereo not given)	> 100 µM (inactive)
C#C/C=C/CC1OC(C(Br)CC)CC(Br)C2CC1O2 (stereo not given)	40.2 µM (inactive)
NC(CC(=O)OCc1ccccc1)C(=O)OCc1ccccc1 (stereo not given)	> 100 µM (inactive)

###

Tested on: UACC-257
Assay: NCI tumour cell line growth inhibition, 48 h
Activity calls are given as the source filed them. Cut-off read from the data, not from the text of the source: active = GI50 up to about 1.1 µM and inactive = higher.
Listed next: entries and their corresponding GI50.

COMPOUND	GI50
CSc1n[n+]2c(s1)SCCC2	> 100 µM (inactive)
CCOC(=O)C(Cc1ccc2c(c1)CCC2)(Cc1ccc2c(c1)CCC2)C(=O)OCC	34.7 µM (inactive)
CCN(CC)CCNc1ccc2nnn3c4ccc(OCCN(CC)CC)cc4c(=O)c1c23	> 100 µM (inactive)
O=C1c2ccccc2C(=O)c2nn(N=P(CP(=Nn3nc4c(n3)C(=O)c3ccccc3C4=O)(c3ccccc3)c3ccccc3)(c3ccccc3)c3ccccc3)nc21	> 100 µM (inactive)
CC(C)NC(=O)OCC[S+]([O-])c1c(Cl)c(Cl)nn1C (centres undefined)	> 10 µM (inactive)
CC(C)C(Sc1nc(-c2ccccc2)c(-c2ccccc2)[nH]1)C(=O)N/N=C/c1ccc(Cl)cc1 (centres undefined)	21 µM (inactive)
C#C/C=C/CC1OC(C(Br)CC)CC(Br)C2CC1O2 (centres undefined)	> 100 µM (inactive)
O=C(CC(=O)n1nc(-c2ccccc2)c(/N=N/c2ccccc2Cl)c1-c1ccccc1)Nc1ccc(Cl)cc1	> 83.2 µM (inactive)
C=CC[C@@]1([C@H](C=C)COCc2ccc(OC)cc2)CC[C@]2(C)OC(C)(C)[C@@H](c3ccccc3)N2C1=S	34.8 µM (inactive)

###

System: PC-3
Experiment: NCI tumour cell line growth inhibition, 48 h
Active and inactive are the calls of the source. Cut-off read from the data, not from the text of the source: active = GI50 up to about 1.1 µM and inactive = higher.
Listed next: entries and their corresponding GI50.
MEASUREMENT_KIND: GI50

COMPOUND	RESULT
C=C(CCC/C(C)=C/C=C/[C@H](C)CCCc1ccoc1)C[C@@H]1OC(=O)[C@H](C)[C@@H]1O	8.65 µM (inactive)
Cc1ccc2c(=O)cc(Cc3cccs3)[nH]c2n1	> 100 µM (inactive)
Cc1cc(C)c2c(n1)S(=O)(=O)N(CCCN1CCN(c3cccc(C(F)(F)F)c3)CC1)c1c-2nn(C)c1C	25.9 µM (inactive)
C[Si](C)(C)C#CCOC=C1CC1	> 100 µM (inactive)
CCP(=S)(CC)CCl	> 100 µM (inactive)
CNC(=S)c1nnsc1N	9.93 µM (inactive)
O=C(Nc1nn(C(=O)c2ccc(Cl)cc2)c(=O)s1)c1ccc(Cl)cc1	> 100 µM (inactive)
CC(=O)O[C@@H](C1C[C@@H](C)[C@H]2[C@@](O)(O1)[C@H](O)[C@@]1(C)C3=CC[C@H]4C(C)(C)[C@@H](OC5OCC(O)C(O)C5O)CC[C@@]45C[C@@]35CC[C@]21C)C(C)(C)O (stereo not given in full)	21.7 µM (inactive)
O=NN1CCNC1Cc1ccccc1 (stereo not given)	> 100 µM (inactive)
COCN1C(=O)[C@@H]2CCCN2C(=O)c2ccc(N)cc21	> 100 µM (inactive)

###

Test system: SW-620
Assay: NCI tumour cell line growth inhibition, 48 h
Active and inactive are the calls of the source. No stated cut-off is given here; in the data, active = GI50 up to about 1.1 µM and inactive = higher.

MOLECULE	GI50
Cc1cc(O)nc(NN2C(Cl)C(=O)C2c2c(O)ccc3ccccc23)n1 (stereo unspecified)	30.2 µM (inactive)
O=[N+]([O-])c1cccc(Cl)c1Oc1ccc(S(=O)(=O)N/C(=N\O)Nc2ccc(Cl)cc2)cc1	15.1 µM (inactive)
NC(CCCCNc1ccn(C2OC(CO)C(O)C2O)c(=O)n1)C(=O)O (stereo unspecified)	> 100 µM (inactive)
CN1CCN(CC(=O)N2c3ccccc3Sc3cc4ccccc4cc32)CC1	20.4 µM (inactive)
CNC(=O)Oc1ccc(-c2cn3cc(OC(=O)NC)ccc3n2)cc1	35.1 µM (inactive)
CS(=O)(=O)c1ccc(/C=N/NC(N)=S)cc1	> 100 µM (inactive)

###

Tested on: HCT-15
Listed next: entries and their corresponding GI50.
MEASUREMENT_KIND: GI50 (µM)

COMPOUND	MEASUREMENT_KIND	UNITS_LABEL	VALUE_PREFIX	QUANTITATIVE_RESULT
C1=N\c2ccc(cc2)-c2ccc(cc2)/N=C\c2ccc(cc2)OCc2cccc(n2)COc2ccc/1cc2	GI50	µM	>	100
OC(CN(CCCl)CCCl)C(O)C(O)C(O)CN(CCCl)CCCl (configuration not stated)	GI50	µM	>	100
Oc1ccc2ccccc2c1-c1nnc(CCCCCCCCc2nnc(-c3c(O)ccc4ccccc34)o2)o1	GI50	µM	=	0.815
Cn1c(=O)c2nc(SCc3ccccn3)[nH]c2n(C)c1=S	GI50	µM	>	100
CC(=O)NC(C)(C)C1CC=C(C)/C(=N\O)C1 (configuration not stated)	GI50	µM	>	100
O=C1c2ccccc2C(=O)c2c(NCC(O)CO)ccc(NCC(O)CO)c21 (configuration not stated)	GI50	µM	=	43.7
COc1cccc(C2SCc3nc4ccccc4n32)c1 (configuration not stated)	GI50	µM	=	38.8

###

Tested on: UACC-62
Experiment: NCI tumour cell line growth inhibition, 48 h
Calls of active or inactive are those of the source. Rule as the data show it: active = GI50 up to about 1.1 µM and inactive = higher.
Outcomes: TRUE for active, FALSE for inactive

COMPOUND	GROUP_LABEL
CCCCCOc1ccc(/C=N\c2ccc(-c3ccc(/N=C\c4ccc(OCCCCC)cc4)c(OC)c3)cc2OC)cc1	FALSE
O=C1OC(c2ccc(O)c(-c3ccccc3)c2)(c2ccc(O)c(-c3ccccc3)c2)c2c(Cl)c(Cl)c(Cl)c(Cl)c21	FALSE
O=C(C[n+]1ccc2ccccc2c1)c1ccc2ccc3ccccc3c2c1	FALSE
CCOP1(=O)CC(C)=C(Cl)C(OC)C1 (centres undefined)	FALSE
CC(=O)[C@]1(O)Cc2c(O)c3c(c(O)c2C(OC2OC(C)C(O)C(O)C2F)C1)C(=O)c1ccccc1C3=O (some centres undefined)	TRUE
O=C(CC(=O)n1nc(-c2ccccc2)c(/N=N/c2ccccc2Cl)c1-c1ccccc1)Nc1ccc(Cl)cc1	FALSE
CC1(C)O[C@H]2OC(CO[Si](C)(C)C(C)(C)C)C(N=[N+]=[N-])[C@H]2O1 (some centres undefined)	FALSE
CCOC(=O)c1cnc(N(C)C)nc1SC(=N)N	FALSE
C#C/C=C/CC1OC(C(Br)CC)CC(Br)C2CC1O2 (centres undefined)	FALSE
